- subject-of-test: ACLY (Homo sapiens, UniProt P53396)
- Construct: His; made in house; host or cells: Escherichia coli BL21(DE3)
- Sequence (P53396 whole entry): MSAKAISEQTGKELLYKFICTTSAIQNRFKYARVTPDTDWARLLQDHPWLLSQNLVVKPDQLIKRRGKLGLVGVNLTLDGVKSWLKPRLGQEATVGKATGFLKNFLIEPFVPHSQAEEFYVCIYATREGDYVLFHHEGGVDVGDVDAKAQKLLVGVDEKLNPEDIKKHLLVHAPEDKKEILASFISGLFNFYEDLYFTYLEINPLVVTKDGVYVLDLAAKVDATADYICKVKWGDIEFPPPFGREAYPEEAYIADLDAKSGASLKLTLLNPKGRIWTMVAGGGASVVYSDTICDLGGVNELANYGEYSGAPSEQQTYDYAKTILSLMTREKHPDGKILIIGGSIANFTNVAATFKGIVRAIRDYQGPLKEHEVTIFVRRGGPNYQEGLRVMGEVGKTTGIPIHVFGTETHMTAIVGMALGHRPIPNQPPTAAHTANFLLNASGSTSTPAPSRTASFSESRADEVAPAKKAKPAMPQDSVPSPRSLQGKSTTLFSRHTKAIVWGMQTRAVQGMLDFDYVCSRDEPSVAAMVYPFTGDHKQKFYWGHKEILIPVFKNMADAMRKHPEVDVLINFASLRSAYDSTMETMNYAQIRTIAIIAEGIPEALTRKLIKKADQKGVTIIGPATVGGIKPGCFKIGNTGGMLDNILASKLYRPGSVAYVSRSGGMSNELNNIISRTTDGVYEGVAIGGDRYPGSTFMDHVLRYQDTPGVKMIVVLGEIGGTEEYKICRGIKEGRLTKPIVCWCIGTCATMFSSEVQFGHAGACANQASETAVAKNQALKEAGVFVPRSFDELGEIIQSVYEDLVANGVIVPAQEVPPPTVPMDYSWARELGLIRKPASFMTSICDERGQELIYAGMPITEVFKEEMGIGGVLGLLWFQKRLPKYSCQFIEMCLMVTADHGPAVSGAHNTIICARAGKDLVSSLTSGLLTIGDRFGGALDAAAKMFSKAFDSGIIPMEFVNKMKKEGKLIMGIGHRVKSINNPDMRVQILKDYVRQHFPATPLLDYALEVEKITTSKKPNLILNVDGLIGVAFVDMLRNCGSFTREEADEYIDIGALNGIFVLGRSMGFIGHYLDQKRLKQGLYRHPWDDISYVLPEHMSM
- protocol: ACLY enzymatic inhibition assay (ADP-Glo Kinase Assay);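 further: purified recombinant His-tagged human ACLY, compounds preincubated with enzyme 15 min, then ADP formed measured as luciferase luminescence after ADP-Glo reagent depletes leftover ATP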
- Type: biochemical
- assay-conditions: concentration-response curves
readout-label: log10 IC50 (log10 of the value in nM)
For clarity, the numbers are log10 values of IC50 expressed in nM.

* O=c1c(O)c(-c2ccc(O)c(O)c2)oc2c(O)c(O)cc(O)c12 | 2.49

Query: GET log10 IC50 | system: ACLY (Homo sapiens, UniProt P53396) | item: O=c1cc(-c2ccc(O)cc2)oc2cc(O)c(O)c(O)c12
Reply: 2.85

Query: GET log10 IC50 | system: ACLY (Homo sapiens, UniProt P53396) | item: Oc1cc(O)c2cc(O)c(-c3ccc(O)c(O)c3)[o+]c2c1
Reply: 3.11
